Source of measurements: the supplement of paper PMC11732987

tested-on: UCHL5 (UniProt Q9Y5K5)
Sequence (whole entry): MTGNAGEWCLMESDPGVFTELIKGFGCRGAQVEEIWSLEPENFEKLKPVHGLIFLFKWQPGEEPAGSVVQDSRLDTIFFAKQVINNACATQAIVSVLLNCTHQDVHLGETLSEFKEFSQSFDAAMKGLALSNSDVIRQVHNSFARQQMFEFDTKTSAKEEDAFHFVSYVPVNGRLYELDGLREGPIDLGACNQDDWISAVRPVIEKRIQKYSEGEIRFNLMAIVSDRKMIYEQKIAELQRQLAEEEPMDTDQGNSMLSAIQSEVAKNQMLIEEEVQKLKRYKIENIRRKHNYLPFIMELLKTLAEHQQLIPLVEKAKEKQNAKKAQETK
assay-procedure: log2 ratio of Biotin-Ahx-Ub-VS probe labelling (fragment/DMSO); higher = less target engagement (more negative = stronger competition), active = hit call of the paper (q ≤ 0.05, log2 ratio ≤ -1)
condition-summary: compound concentration: 200 uM; treatment time: 3 h
Assign log2 ratio of Biotin-Ahx-Ub-VS probe labelling to each entry below.
Answers are plain numbers.

Below are worked cases with known answers.
# compound, recorded-value
records = [
    ("O=C(CCl)N1c2ccccc2NC(=O)C12CCCC2", -0.148),
    ("CNC(=O)C1(NC(=O)CCl)CCCCC1", -0.358),
    ("O=C(CCl)N1CCOC(c2cccc(F)c2)C1 (configuration not stated)", -0.463),
    ("Cc1ccc(CN(C)C(=O)CCl)o1", -0.238),
    ("O=C(O)C1Cc2ccccc2CN1C(=O)CCl (configuration not stated)", -0.324),
]

Parameters: items (list). Returns: log2 ratio of Biotin-Ahx-Ub-VS probe labelling for each item.
1. Cc1cc(CC(C)NC(=O)CCl)n[nH]1 (configuration not stated)
2. Cc1noc(C)c1CNC(=O)CCl
3. Cl.O=C(CCl)N1CCC(n2nc3ccccc3n2)CC1

-0.292
-0.89
-0.457

Parameters: items (list). Returns: log2 ratio of Biotin-Ahx-Ub-VS probe labelling for each item.
1. O=C(CCl)NCC1(c2ccccc2)CC1
2. NC(=O)C(Cc1ccccc1)NC(=O)CCl (configuration not stated)

[-0.245, -0.295]

Parameters: items (list). Returns: log2 ratio of Biotin-Ahx-Ub-VS probe labelling for each item.
1. Cl.Cn1nc2c(c1CNC(=O)CCl)CCCC2
2. Cc1ccn2cc(CNC(=O)CCl)nc2c1.Cl
3. Cl.O=C(CCl)N1CCN(Cc2ccccc2)CC1

1: -0.368; 2: -0.311; 3: -0.282
